Data credit: ChEMBL document CHEMBL3045679

tested on: Aspergillus flavus; test: Antifungal activity against Aspergillus flavus NCIM 535 after 72 hr by broth dilution assay; assay type: functional; details: NCIM 535, 72 h
MIC by entry:
Measure Name: MIC (µg/mL)

Cc1cccc2cc3c(=O)[nH]c(=O)[nH]c3nc12; 7.8
O=c1[nH]c(=O)c2cc3ccccc3nc2[nH]1; 3.9
COc1cccc2cc3c(=O)[nH]c(=S)[nH]c3nc12; 125
O=c1[nH]c(=S)[nH]c2nc3ccccc3cc12; 7.8
Cc1ccc2nc3[nH]c(=O)[nH]c(=O)c3cc2c1; 7.8

###

system: Rhodotorula mucilaginosa; test: Antifungal activity against Rhodotorula mucilaginosa NCIM 3174 at 1000 ug/disk after 72 hr by disk diffusion method; format: functional; conditions: NCIM 3174, 72 h, read-out: DIZ
Measure Name: zone of inhibition at 1000 µg/disc

O=c1[nH]c(=S)[nH]c2nc3ccc(Br)cc3cc12; 12 mm
O=c1[nH]c(=O)c2cc3ccccc3nc2[nH]1; 11 mm
Cc1ccc2nc3[nH]c(=S)[nH]c(=O)c3cc2c1; 9 mm
Cc1ccc2nc3[nH]c(=O)[nH]c(=O)c3cc2c1; 13 mm
COc1cccc2cc3c(=O)[nH]c(=S)[nH]c3nc12; 9 mm
O=c1[nH]c(=O)c2cc3cc(Cl)ccc3nc2[nH]1; 9 mm

###

tested on: Klebsiella aerogenes; test: Antibacterial activity against Enterobacter aerogenes NCIM 2239 at 500 ug/disk after 24 hr by disk diffusion method; format: functional
Activity calls are given as the source filed them. The calls are words filed in the database; no cut-off is given here.
Measure Name: diameter of the inhibition zone (DIZ)

O=c1[nH]c(=O)c2cc3cc(Cl)ccc3nc2[nH]1; inactive
O=c1[nH]c(=S)[nH]c2nc3ccc(Br)cc3cc12; inactive
COc1cccc2cc3c(=O)[nH]c(=O)[nH]c3nc12; inactive
Cc1cccc2cc3c(=O)[nH]c(=O)[nH]c3nc12; inactive
Cc1cccc2cc3c(=O)[nH]c(=S)[nH]c3nc12; inactive
O=c1[nH]c(=O)c2cc3cc(Br)ccc3nc2[nH]1; inactive
COc1ccc2nc3[nH]c(=S)[nH]c(=O)c3cc2c1; inactive
COc1cccc2cc3c(=O)[nH]c(=S)[nH]c3nc12; inactive

###

test system: Penicillium chrysogenum; experiment: Antifungal activity against Penicillium chrysogenum NCIM 707 after 72 hr by broth dilution assay; assay type: functional; conditions: NCIM 707, 72 h
Measured MIC by item
Measure Name: MIC (µg/mL)

O=c1[nH]c(=O)c2cc3ccccc3nc2[nH]1; 7.8
O=c1[nH]c(=S)[nH]c2nc3ccccc3cc12; 7.8
Cc1ccc2nc3[nH]c(=O)[nH]c(=O)c3cc2c1; 15.6
COc1ccc2nc3[nH]c(=O)[nH]c(=O)c3cc2c1; 62.5
Cc1cccc2cc3c(=O)[nH]c(=O)[nH]c3nc12; 62.5
COc1ccc2nc3[nH]c(=S)[nH]c(=O)c3cc2c1; 125

###

test system: Escherichia coli; test: Antibacterial activity against Escherichia coli NCIM 2065 at 1000 ug/disk after 24 hr by disk diffusion method; format: functional; settings: NCIM 2065, 24 h, read-out: DIZ
Listed next: entries and their corresponding zone of inhibition at 1000 µg/disc.
Measure Name: zone of inhibition at 1000 µg/disc (mm)

O=c1[nH]c(=S)[nH]c2nc3ccc(Br)cc3cc12; 10
Cc1ccc2nc3[nH]c(=S)[nH]c(=O)c3cc2c1; 11
O=c1[nH]c(=S)[nH]c2nc3ccc(Cl)cc3cc12; 10
Cc1cccc2cc3c(=O)[nH]c(=O)[nH]c3nc12; 15
O=c1[nH]c(=O)c2cc3cc(Br)ccc3nc2[nH]1; 11
COc1ccc2nc3[nH]c(=O)[nH]c(=O)c3cc2c1; 12
O=c1[nH]c(=O)c2cc3ccccc3nc2[nH]1; 13
Cc1cccc2cc3c(=O)[nH]c(=S)[nH]c3nc12; 11
O=c1[nH]c(=O)c2cc3cc(Cl)ccc3nc2[nH]1; 12
COc1ccc2nc3[nH]c(=S)[nH]c(=O)c3cc2c1; 13
COc1cccc2cc3c(=O)[nH]c(=S)[nH]c3nc12; 11
O=c1[nH]c(=S)[nH]c2nc3ccccc3cc12; 10
COc1cccc2cc3c(=O)[nH]c(=O)[nH]c3nc12; 12
Cc1ccc2nc3[nH]c(=O)[nH]c(=O)c3cc2c1; 12
